system: M14; test: NCI tumour cell line growth inhibition, 48 h
Active and inactive are the calls of the source. Rule as the data show it: active = GI50 up to about 1.1 µM and inactive = higher.
Outcome codes: t for active, f for inactive

- MOLECULE: "Nc1ccc(C(=O)CC2(O)C(=O)Nc3c(Cl)cc(Cl)cc32)cc1 (stereo not given)"
  QUALITATIVE LABEL: "f"
- MOLECULE: "COC(=O)Nc1nc2cc(NS(=O)(=O)c3ccc(Cl)cc3)ccc2[nH]1"
  QUALITATIVE LABEL: "f"
- MOLECULE: "O=C(O)[C@H](NS(=O)(=O)c1ccc([N+](=O)[O-])cc1)c1ccccc1"
  QUALITATIVE LABEL: "f"
- MOLECULE: "C[N+](C)([O-])Cc1cc(-c2ccccc2)ccc1O"
  QUALITATIVE LABEL: "f"
- MOLECULE: "CCC1(O)C(=O)OCc2c1cc1n(c2=O)Cc2cc3cc4c(cc3nc2-1)OCO4 (stereo not given)"
  QUALITATIVE LABEL: "t"
